The reported measurements were obtained from patent US10703748B2.

- System: SW480 colon carcinoma cells
- Procedure summary: Cell viability assay (CellTiter-Glo)
- Settings: Homo sapiens, SW480, read-out: percent inhibition at 10 μM
Form field: inhibition at 10 µM (one value per entry).
Readout name: inhibition at 10 µM

Compound	Readout name	Observed value
Cn1cc(-c2ccc3cnc(NC(=O)C4CC4)nc3c2)cn1 [Compound 909]	inhibition at 10 µM	45.6%
C[C@H]1CCCN1CC(=O)Nc1cc2cc(-c3cnn(C)c3)cnc2cn1 [Compound 2767]	inhibition at 10 µM	37%
Cn1cc(-c2cc3cc(NC(=O)C4CCN(Cc5ncco5)CC4)ncc3cn2)cn1 [Compound 3723]	inhibition at 10 µM	43.7%
Cn1cncc1-c1ccc2cnc(NC(=O)c3ccc4c(c3)CNC4)nc2c1 [Compound 1383]	inhibition at 10 µM	26.1%
Cn1cc(-c2cnc3cnc(NC(=O)CC4CNCCO4)cc3c2)cn1 (centres unmarked) [Compound 2807]	inhibition at 10 µM	7.9%

###

- System: SW480 colon carcinoma cells
- Procedure summary: Cell viability assay (CellTiter-Glo)
- Settings: Homo sapiens, SW480, read-out: percent inhibition at 10 μM

Query smiles	inhibition at 10 µM
CN1CCN(Cc2cccc(C(=O)Nc3cc4cc(-c5cnn(C)c5)cnc4cn3)c2)CC1	36%
O=C(Nc1cc2cc(-c3cncs3)ncc2cn1)C1CCN(C2COC2)CC1	19.9%
Cn1cc(-c2cc3cc(NC(=O)[C@H]4CCCN4)ncc3cn2)cn1	28.8%
Cn1cc(-c2ccc3cnc(NC(=O)C4CCN(S(C)(=O)=O)CC4)nc3c2)cn1	16.7%

###

- Test target: DYRK1A kinase (Homo sapiens, UniProt Q13627)
- Procedure summary: DYRK1A kinase activity (Ser/Thr 18 peptide Z-lyte FRET assay)
- Settings: recombinant DYRK1A, 30 μM ATP, one hour at room temperature
pEC50: −log10 of the molar value.
pEC50 values by entry

Query smiles	pEC50
Cn1cc(-c2cnc3cnc(NC(=O)C4CC4)cc3c2)cn1	7.64
Cn1cc(-c2cnc3cnc(NC(=O)c4ccc5ccoc5c4)cc3c2)cn1	7.77
O=C(Nc1cc2nc(-c3cncs3)ccc2cn1)c1ccc(OC2CCNCC2)cc1	8.52
CN1CCCN(CC(=O)Nc2ncc3ccc(-c4cnn(C)c4)cc3n2)CC1	7.12
CN1CCN(c2cc(C(=O)Nc3cc4cc(-c5cnc(N)s5)cnc4cn3)ccn2)CC1	6.24
Cn1cc(-c2ccc3cnc(NC(=O)C4CCN(CC5(C(F)(F)F)CC5)CC4)cc3n2)nn1	5.00
Cn1cc(-c2ccc3cnc(NC(=O)[C@H]4CCCN4)cc3n2)cn1	7.25
CN(C)CCNc1cc(C(=O)Nc2cc3cc(-c4cnn(C)c4)ncc3cn2)ccn1	8.00
CN1CCN(c2cc(C(=O)Nc3ncc4ccc(-c5cnc(N)s5)cc4n3)ccn2)CC1	8.30
Cn1cc(-c2cc3cc(NC(=O)c4ccc5nccnc5c4)ncc3cn2)cn1	8.22
Cn1cc(-c2cc3cc(NC(=O)CCc4ccccc4)ncc3cn2)cn1	8.15
Cc1nnc(-c2ccc3cnc(NC(=O)CN4C[C@@H]5C[C@H]4CO5)nc3c2)s1	6.88
Cn1cc(-c2cnc3cnc(NC(=O)C4CCN(CC5(C(F)(F)F)CC5)CC4)cc3c2)nn1	7.24
O=C(Nc1cc2nc(-c3cncc(OCC4CNC4)n3)ccc2cn1)c1ccc(F)cc1	6.85
CN1CCCN(c2cc(C(=O)Nc3ncc4ccc(-c5cn(C)nn5)cc4n3)ccn2)CC1	7.89
CN1CC=C(c2cc(C(=O)Nc3cc4cc(-c5cncc(NC(C)(C)C)n5)cnc4cn3)ccn2)CC1	9.00
Cn1cnnc1-c1cnc2cnc(NC(=O)C3CCN(CCC(F)(F)F)CC3)cc2c1	6.42

###

- Test target: DYRK1A kinase (Homo sapiens, UniProt Q13627)
- Procedure summary: DYRK1A kinase activity (Ser/Thr 18 peptide Z-lyte FRET assay);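 further: kinase activity read as coumarin/fluorescein emission ratio after development step, with unphosphorylated and phosphorylated peptide forms setting 0% and 100% controls, values from dose-response curves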
- Settings: recombinant DYRK1A, 30 μM ATP, one hour at room temperature

Compound	EC50
CC(C)CN1CCC(CC(=O)Nc2ncc3ccc(-c4cnn(C)c4)cc3n2)C1 (stereo not shown) [Compound 1029]	45 nM
CN1CCC(Nc2cc(C(=O)Nc3ncc4ccc(-c5cnn(C)c5)cc4n3)ccn2)CC1 [Compound 4569]	8 nM
Cc1ncc(-c2ccc3cnc(NC(=O)C4CCN(C5COC5)CC4)cc3n2)s1 [Compound 4560]	14 nM
Cn1cc(-c2cc3cc(NC(=O)C4CC4)ncc3cn2)cn1 [Compound 3629]	7 nM

###

- Test system: Tau phosphorylation at Ser396 (pSer396)
- Procedure summary: Tau phosphorylation at Ser396 (pSer396) in SH-SY5Y cells, ELISA / western blot;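 further: decrease in pSer396 Tau measured in lysates of treated cells by colorimetric ELISA or chemiluminescent western blot, same pSer396 antibody for both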
- Type: cell-based, human
- Settings: Homo sapiens; SH-SY5Y cells, overnight (16-18 h); read-out: pSer396 Tau EC50

Molecule	Bound type	EC50 (µM)
Cn1cc(-c2ccc3cnc(NC(=O)CCc4ccccc4)nc3c2)cn1 [Compound 1101]	=	9.5
COC1CCN(CC(=O)Nc2cc3nc(-c4cn(C)nn4)ccc3cn2)CC1 [Compound 358]	=	1.5
Cn1cc(-c2ccc3cnc(NC(=O)C4CCNCC4)nc3c2)cn1 [Compound 918]	>	10
Cn1cc(-c2cc3cc(NC(=O)CC4CNCCO4)ncc3cn2)cn1 (stereo not drawn) [Compound 3714]	=	0.21
Cc1ncc(-c2ccc3cnc(NC(=O)C4CCN(C5COC5)CC4)cc3n2)s1 [Compound 4560]	=	0.992
Cn1ncc(-c2cc3cc(NC(=O)C4CC5(C4)CN(CCF)C5)ncc3cn2)c1CN1CCCCC1 [Compound 3907]	=	0.367
CN(CC(=O)Nc1cc2nc(-c3cnn(C)c3)ccc2cn1)C1CCC1 [Compound 56]	=	1.5
CN(C)[C@H]1CC[C@H](C(=O)Nc2ncc3ccc(-c4cncs4)cc3n2)CC1 [Compound 1518]	=	5.4
Cc1cn2c(n1)CN(C(=O)Nc1ncc3ccc(-c4cnc(C)o4)cc3n1)CC2 [Compound 1491]	=	3.7
Cn1cc(-c2ccc3cnc(NC(=O)C4CCN(Cc5ncco5)CC4)nc3c2)cn1 [Compound 1003]	=	4.5
Cn1cc(-c2cc3cc(NC(=O)C4CCNCC4)ncc3cn2)cn1 [Compound 3638]	=	1.5
CNC(=O)c1ccc(C(=O)Nc2ncc3ccc(-c4cn(C)nn4)cc3n2)cn1 [Compound 1278]	=	5.05
Cn1cc(-c2ccc3cnc(NC(=O)CC4CNCCO4)cc3n2)cn1 (stereo not drawn) [Compound 86]	=	1
Cn1cc(-c2ccc3cnc(NC(=O)C4CC4)cc3n2)cn1 [Compound 2]	=	0.396
Cn1cncc1-c1ccc2cnc(NC(=O)c3cccc(CN4CCCC4)c3)cc2n1 [Compound 450]	=	3.75
CC(C(=O)Nc1cc2cc(-c3cnn(C)c3)ncc2cn1)N1CCCCC1 (stereo not drawn) [Compound 3698]	=	0.076
Cn1cc(-c2ccc3cnc(NC(=O)C4CCNCC4)cc3n2)cn1 [Compound 11]	=	3.5
Cn1ncc(-c2cnc3cnc(NC(=O)C4CC5(C4)CN(CCF)C5)cc3c2)c1CN1CCCCC1 [Compound 3000]	=	1.83

###

# pEC50 per entry
- Test target: GSK3β kinase (Homo sapiens)
- Sequence (P49841 whole entry): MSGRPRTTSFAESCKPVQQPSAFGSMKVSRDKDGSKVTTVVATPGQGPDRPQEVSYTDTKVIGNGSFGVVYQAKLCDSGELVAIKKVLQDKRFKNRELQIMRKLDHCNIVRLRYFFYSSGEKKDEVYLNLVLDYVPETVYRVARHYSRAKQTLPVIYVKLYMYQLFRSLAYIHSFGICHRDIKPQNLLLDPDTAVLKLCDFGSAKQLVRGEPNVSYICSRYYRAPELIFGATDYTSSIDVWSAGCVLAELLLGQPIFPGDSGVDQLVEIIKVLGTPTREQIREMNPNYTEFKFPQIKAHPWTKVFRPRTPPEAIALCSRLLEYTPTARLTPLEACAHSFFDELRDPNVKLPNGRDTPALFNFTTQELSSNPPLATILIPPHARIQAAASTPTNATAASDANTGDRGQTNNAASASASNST
- Procedure summary: GSK3β kinase activity (Ser/Thr 09 peptide Z-lyte FRET assay)
- Type: biochemical
- Settings: recombinant kinase, 46 μM ATP, one hour at room temperature; read-out: EC50
pEC50: −log10 of the molar value.

Compound	Bound type	pEC50
CN1CCC2(CC1)CN(c1cc(C(=O)Nc3cc4cc(-c5cnn(C)c5CN5CCCCC5)cnc4cn3)ccn1)C2	<	5.00
Cn1cncc1-c1cnc2cnc(NC(=O)c3ccc(F)cc3)cc2c1	<	5.00
CN1CCC(n2cc(C(=O)Nc3ncc4ccc(-c5cncc6[nH]ccc56)cc4n3)cn2)CC1	<	5.00
COC1CCN(CC(=O)Nc2cc3cc(-c4cn(C)nn4)cnc3cn2)CC1	=	6.12
Cc1ncc(-c2ccc3cnc(NC(=O)N4CCC(N(C)C)CC4)cc3n2)s1	<	5.00
CO[C@H]1CC[C@H](C(=O)Nc2cc3cc(-c4nnc(C)s4)cnc3cn2)CC1	=	5.64
Cc1ncc(-c2ccc3cnc(NC(=O)Cn4ccnc4)cc3n2)o1	=	6.81
Cc1ncc(-c2ccc3cnc(NC(=O)C(C)N4CCCC4)cc3n2)n1C (centres unmarked)	=	7.74
Cn1cc(-c2cnc3cnc(NC(=O)c4ccnc(N5CCNCC5)c4)cc3c2)nn1	<	5.00
Cc1cn2c(n1)CN(C(=O)Nc1cc3cc(-c4cnco4)cnc3cn1)CC2	=	5.11
Cn1cc(-c2ccc3cnc(NC(=O)CC4CNCCO4)cc3n2)cn1 (centres unmarked)	=	7.17
Cn1ncc(-c2ccc3cnc(NC(=O)C4CC5(C4)CN(CCF)C5)nc3c2)c1CN1CCCCC1	=	6.40
CC(C)OC(=O)N1CCC(n2cc(C(=O)Nc3cc4nc(-c5cnn(C)c5)ccc4cn3)cn2)CC1	=	5.65
Cc1ncc(-c2ccc3cnc(NC(=O)N4CCC(N5CCOCC5)CC4)nc3c2)o1	=	5.63
CCN(CC)CC(=O)Nc1ncc2ccc(-c3cnn(C)c3CN3CCCCC3)cc2n1	=	5.77
O=C(Nc1cc2cc(-c3cncc(NCC4(F)CNC4)n3)cnc2cn1)C1CC1	=	5.64
CN1CCN(c2ccc(C(=O)Nc3cc4nc(-c5cnn(C)c5)ccc4cn3)cn2)CC1	=	6.24
